Study system: T1, Rtt106p_(65-301) bound to Bcd1p_(120-303) (S. cerevisiae, UniProt P40161 65-301; P38772 120-303)
T1 chain 1: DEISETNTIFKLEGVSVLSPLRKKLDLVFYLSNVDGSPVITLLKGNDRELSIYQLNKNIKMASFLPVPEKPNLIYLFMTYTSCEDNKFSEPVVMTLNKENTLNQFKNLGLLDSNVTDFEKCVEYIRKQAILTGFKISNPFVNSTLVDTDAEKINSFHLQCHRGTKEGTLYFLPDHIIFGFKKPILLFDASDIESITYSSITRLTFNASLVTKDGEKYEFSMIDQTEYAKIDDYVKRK
T1 chain 2: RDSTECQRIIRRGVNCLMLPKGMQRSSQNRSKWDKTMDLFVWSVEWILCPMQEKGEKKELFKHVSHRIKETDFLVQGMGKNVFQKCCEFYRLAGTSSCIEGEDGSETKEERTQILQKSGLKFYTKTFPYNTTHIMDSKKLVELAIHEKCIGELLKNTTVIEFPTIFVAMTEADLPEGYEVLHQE
Assay remarks: ITC
Where no end group is shown, it is not given here.
Endpoint name: pKd
pKd (log units): -log10 of the concentration in mol/L.

Task: Provide only the value of recorded pKd for IRRFQK(Ac)STELL (histone H3 stretch around lysine 56, acetylated at K56; also called acetylated peptide; source: synthetic peptide, bought: Proteogenix) [H3K56ac (IRRFQKacSTELL) peptide]
Result: 3.19
